- test-protocol: growth inhibition of control SK(-) GAS strain, dose response, counter-screen for streptokinase expression inhibitor project, luminescence, kanamycin, BacTiterGlo, confirmation (AID 1900)
- condition-summary: SK(-)GAS Streptococcus pyogenes + kanamycin, BacTiterGlo viability, 6 h; at 15 µM (top of the series)
Out of some 3,200 compounds screened, about 2,900 (91%) were called active. So high a share suggests a set chosen from earlier hits. The list shows a part of the results. Entries with a potency or affinity are not part of this list.
measured-property: activity change, negative = inhibition (%)
The response must be a number in % with no trailing unit.

Reference set, count: 2
COc1ccccc1N=c1oc2cc(O)ccc2cc1C(N)=O | -48.9
FC(F)Oc1ccccc1C1CC(c2ccc(Br)s2)Nc2ncnn21 (stereo not given) | -52.4

In: Can you share its activity change, negative = inhibition? I mean this molecule: "COc1cccc2sc(Nc3nnc(-c4ccccc4Cl)o3)nc12"
Out: -41.8

In: Can you share its activity change, negative = inhibition? I mean this molecule: "O=C(Nc1ccccc1Sc1ccccc1)c1ccccc1F"
Out: -63

In: Can you share its activity change, negative = inhibition? I mean this molecule: "N#C/C(=C\c1ccc(/C=C(/C#N)c2nn(CCO)c(N)c2C#N)cc1)c1nn(CCO)c(N)c1C#N"
Out: -56
